Entries and their Potency values follow.
Molecular target: DNA dC->dU-editing enzyme APOBEC-3G (Homo sapiens) (UniProt Q9HC16)
Sequence (Q9HC16 whole entry, looked up): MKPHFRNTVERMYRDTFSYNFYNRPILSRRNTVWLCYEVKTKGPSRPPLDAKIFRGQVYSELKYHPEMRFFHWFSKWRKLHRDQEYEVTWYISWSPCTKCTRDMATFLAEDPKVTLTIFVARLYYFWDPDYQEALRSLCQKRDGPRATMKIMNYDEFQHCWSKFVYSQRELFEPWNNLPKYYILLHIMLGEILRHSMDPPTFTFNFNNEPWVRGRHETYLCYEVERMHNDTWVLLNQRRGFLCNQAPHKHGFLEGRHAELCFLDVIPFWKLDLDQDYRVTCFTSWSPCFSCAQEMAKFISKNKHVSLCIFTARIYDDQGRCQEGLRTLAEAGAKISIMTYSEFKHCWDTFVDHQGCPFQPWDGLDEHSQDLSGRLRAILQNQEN
Assay: qHTS for inhibitors of Vif-A3G interactions: Cherry picks counterscreen;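 further: potency means the concentration at half of the fitted maximal effect; hits raise yellow fluorescence by blocking Vif-driven A3G-eYFP degradation; nearly all actives have a fitted effect of over 70% in size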
Conditions: HeLa A3G-eYFP + Vif (tagged APOBEC3G with the HIV-1 protein that degrades it), eYFP fluorescence, 24 h
Among all 2,100 compounds or so, about 1,100 (52%) were called active. About 27% were inconclusive and are not listed. The set was probably picked from earlier hits. The list shows a part of the results.

Here's what some known entries look like.
# COMPOUND, MEASUREMENT LABEL, RESULT
records = [
    ("CCOC(=O)c1[nH]c(C)c(C(=O)Nc2cc(OC)ccc2OC)c1C", "Potency", "3.53 µM (active)"),
    ("COc1ccc2nc3ccccc3nc2c1NC(=O)c1ccc(Cl)cc1", "Potency", "18.4 µM (active)"),
    ("CCCn1c(SCC(=O)Nc2ccccc2OC)nnc1-c1ccco1", "Potency", "17.7 µM (active)"),
    ("CN1C(=S)N(c2cccnc2)C(=O)/C1=C\\c1ccc(N(C)C)cc1", "Potency", "11.2 µM (active)"),
    ("Cc1ccc(C(=O)c2cc([N+](=O)[O-])ccc2N2CCN(C)CC2)cc1", "Potency", "7.04 µM (active)"),
    ("COc1ccc(C(=O)c2ccc(OC)c(OC)c2OC)cc1", "Potency", "2.23 µM (active)"),
    ("CCOC(=O)c1c(C)[nH]c(C(=O)N/N=C/c2cccc(OC)c2)c1C", "Potency", "15.8 µM (active)"),
    ("Cc1c(N2C(=O)/C(=C/c3ccc(N(C)C)cc3)N(C)C2=S)c(=O)n(-c2ccccc2)n1C", "Potency", "20.6 µM (active)"),
    ("Cc1ccccc1N1C(=O)c2cccc3c(N(C)CCO)ccc(c23)C1=O", "Potency", "4.61 µM (active)"),
    ("CC(C)CN(CC(C)C)c1ccc(/C=C/c2ccnc3ccccc23)cc1", "Potency", "16.4 µM (active)"),
]

Could you please provide reported Potency for Cc1c(/C=N\NC(=O)c2cc3ccccc3o2)c2ccccc2n1C ? Thanks!
3.96 µM (active)

Could you please provide reported Potency for CCOC(=O)CSC1=C(C#N)C(c2ccc(C)s2)CC(=O)N1 (centres undefined) ? Thanks!
1.77 µM (active)

Could you please provide reported Potency for Cc1ccc(S(=O)(=O)C(C#N)c2nc3ccccc3nc2N2CCCC2)cc1 (centres undefined) ? Thanks!
16.4 µM (active)

Could you please provide reported Potency for CCCCNc1c(-c2ccc(SC3CCCCC3)cc2)nc2cnccn12 ? Thanks!
2.23 µM (active)

Could you please provide reported Potency for COc1cccc(C2CC(c3ccccc3)=NN2S(=O)(=O)c2ccc(C)cc2)c1OC (centres undefined) ? Thanks!
18.4 µM (active)
